protocolDescription: AUC (0 to infinity) in Sprague-Dawley rat at 2 mg/kg, iv
Type: ADME, organism-based
Set-up: dose 2 mg/kg, route iv
experimentalConditions: in vivo
measurementKind: AUC(0-inf) (ng·h/mL)
The reply should be a number in ng·h/mL, with the unit left off.

Entry `Cc1cc(/C=C/C#N)cc(C)c1Cc1nc(NC2CCN(Cc3ccc(C(N)=O)cc3)CC2)ncc1-c1cncnc1` — recorded AUC(0-inf) = 403

----------
So I've got a bunch of compounds here, and I need their IC50 values.
assaySystem: Cytochrome P450 1A2 (Homo sapiens, UniProt P05177)
Sequence (P05177 whole entry): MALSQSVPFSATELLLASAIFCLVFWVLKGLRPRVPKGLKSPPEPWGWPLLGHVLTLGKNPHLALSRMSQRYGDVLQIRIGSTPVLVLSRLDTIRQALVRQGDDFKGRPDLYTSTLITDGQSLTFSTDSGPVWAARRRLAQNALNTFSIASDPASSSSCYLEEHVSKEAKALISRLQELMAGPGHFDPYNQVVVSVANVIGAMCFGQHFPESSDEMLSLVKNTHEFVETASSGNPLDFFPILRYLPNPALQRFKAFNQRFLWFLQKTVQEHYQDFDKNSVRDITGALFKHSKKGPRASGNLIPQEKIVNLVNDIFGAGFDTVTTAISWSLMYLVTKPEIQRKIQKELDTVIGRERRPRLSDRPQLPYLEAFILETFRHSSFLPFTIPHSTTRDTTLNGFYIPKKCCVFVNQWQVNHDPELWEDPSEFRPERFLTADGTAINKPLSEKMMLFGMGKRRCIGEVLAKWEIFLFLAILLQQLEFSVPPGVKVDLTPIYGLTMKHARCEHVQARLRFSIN

The recorded IC50 for `Cc1cc(/C=C/C#N)cc(C)c1Cc1nc(NC2CCN(Cc3ccc(S(C)(=O)=O)cc3)CC2)ncc1-c1cncnc1` is > 50 µM

Data point: `Cc1cc(/C=C/C#N)cc(C)c1Cc1nc(NC2CCN(Cc3ccc(C(N)=O)cc3)CC2)ncc1-c1cncnc1` ; IC50 = > 50 µM
